test system: HIV-1 Tat-derived peptide RKKRRQRRRPPQGS (Human immunodeficiency virus 1); assay: EMSA; conditions: linker B (triethylene glycol) replaces 6-nt loop between the two strands; 42.6% active RNA
assay.readout: pKd
Please note pKd is a logarithmic value: minus log10 of concentration in mol/L. Answer with that number alone.

Returns the measured pKd for the input sequence. Input: GGAGAUCUGAGCGCUCUCUCC [TAR conjugate 5B]
9.02
